Data origin: paper PMC5727842

Readings of FRAP antioxidant capacity for the listed compounds
# TEST: Ferric reducing antioxidant power (FRAP)

A selection of reference data follows.
Prompt line: I am curious: what FRAP antioxidant capacity value has been reported for O=c1cc(-c2ccccc2)oc2cc(O)cc(O)c12 [Chrysin, 5,7-Dihydroxyflavone] ?
Response line: 21.38 ± 1.86 AAE μg of ascorbic acid/g

Prompt line: Next compound up: O=c1c(O)c(-c2ccc(O)c(O)c2)oc2cc(O)cc(O)c12 [Quercetin, 3,3′,4′,5,7-Pentahydroxyflavone]
Response line: 148.12 ± 4.40 AAE μg of ascorbic acid/g

Prompt line: Now consider COc1c(O)cc(O)c2c(=O)cc(-c3ccccc3)oc12 [Wogonin, 5,7-Dihydroxy-8-methoxyflavone] .
Response line: 39.15 ± 1.68 AAE μg of ascorbic acid/g

New cases:
Prompt line: Data request, read-out FRAP antioxidant capacity, for O=c1cc(-c2ccccc2)oc2c(O)c(O)cc(O)c12 [Norwogonin, 5,7,8-Trihydroxyflavone]
Response line: 177.37 ± 1.82 AAE μg of ascorbic acid/g
